Quick reference: Population Pyknosed Nuclei (%) of the listed items.
# System: Fibroblast
# assay-text: Multiplex assay against human fibroblast
# Format: toxicity, cell-based
# particulars: 48 h, 10 µM, compound concentration 10 uM, replicate 2
readout: Population Pyknosed Nuclei (%)

>>> measured_result("CNC(=O)Nc1ccc(-c2nc(N3CC4CCC(C3)O4)c3cnn(C4CCC5(CC4)OCCO5)c3n2)cc1")
2
>>> measured_result("CN1CCN(Cc2ccc(Nc3ncc(Cl)c(Nc4ccccc4S(=O)(=O)N(C)C)n3)cc2)CC1")
11
>>> measured_result("Cc1ccccc1C(c1ccccc1C)N1C2CCC1CC(O)(c1ccccc1)C2 (centres undefined)")
1
>>> measured_result("CC(C)Oc1ccccc1C(=O)Nc1ccccc1C(=O)Nc1cccc(S(=O)(=O)C(F)(F)F)c1")
3
>>> measured_result("O=C(c1cc2c(cc1F)OC(c1ccc(F)cc1)(c1ccc(Cl)cc1Cl)O2)N1CCOCC1 (centres undefined)")
9
>>> measured_result("C[C@]12CC[C@@H]3c4ccc(O)cc4CC[C@H]3[C@@H]1CC[C@@H]2O")
2
>>> measured_result("COc1cc(Nc2nccc(-c3cnn4nc(OC)ccc34)n2)cc(C(F)(F)F)c1")
1
>>> measured_result("CC(C)OC(=O)N1CCC(Oc2ncnc3c2cnn3-c2ccc(S(C)(=O)=O)cc2F)CC1")
3
>>> measured_result("CCOC(=O)Nc1cc(-c2ccc(C)c(NS(C)(=O)=O)c2)nn2c(C)nnc12")
0
>>> measured_result("CC1=C(C(=O)Nc2cc3cn[nH]c3cc2F)C(c2ccc(C(F)(F)F)cc2)CC(=O)N1 (centres undefined)")
8
>>> measured_result("Cc1ccc2c(c1)c1c(n2CCc2ccc(C)nc2)CCN(C)C1 [LATREPIRDINE]")
2
>>> measured_result("Cl.O=C(O)c1cc(-c2ccc(C3CCNCC3)cc2)c2ccc(-c3ccc(C(F)(F)F)cc3)cc2c1")
3
>>> measured_result("CC(C)c1noc(N2CCC(COc3ccc(-c4ccc(S(C)(=O)=O)cc4)nc3)CC2)n1")
4
>>> measured_result("C#Cc1cccc(Nc2ncnc3cc(OCCOC)c(OCCOC)cc23)c1")
9
>>> measured_result("COc1ccccc1CN[C@H]1C2CCN(CC2)[C@H]1C(c1ccccc1)c1ccccc1")
4
>>> measured_result("O=c1cc(N2CCOCC2)oc2c(-c3cccc4c3sc3ccccc34)cccc12")
17
>>> measured_result("CCc1ccc(OCc2ccccc2C(=O)Nc2ccc3nc(C)cc(N)c3c2)cc1.Cl")
4
>>> measured_result("CC(C)(C)NC[C@H](O)COc1nsnc1N1CCOCC1")
5
>>> measured_result("Cc1cccc(CN2CCN(C(c3ccccc3)c3ccc(Cl)cc3)CC2)c1.Cl.Cl (centres undefined)")
5

====

Here the recorded Population Hoechst High Intensity Objects (%) is given for each entry.
# Test system: Fibroblast
# assay-text: Multiplex assay against human fibroblast
# Type: toxicity, cell-based
# particulars: 24 h, 10 µM, compound concentration 10 uM, replicate 1
readout: Population Hoechst High Intensity Objects (%)

>>> measured_result("CC(C)CC(=O)Nc1[nH]nc2c1CN(C(=O)C1CCN(C)CC1)C2(C)C")
11
>>> measured_result("CNC(=O)Nc1ccc(-c2nc(N3CC4CCC(C3)O4)c3cnn(C4CCC5(CC4)OCCO5)c3n2)cc1")
18
>>> measured_result("Cc1cccc(CN2CCN(C(c3ccccc3)c3ccc(Cl)cc3)CC2)c1.Cl.Cl (stereo not drawn)")
14

====

# Tested on: HEK-293T
# assay-text: Multiplex assay against HEK293T;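 for Population Tubulin-Different-Phenotype (%): share of the cells with healthy nuclei that show this phenotype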
# Type: toxicity, cell-based
# particulars: human, 48 h, 1 µM, compound concentration 1 uM, replicate 2
Reported Population Tubulin-Different-Phenotype (%) values follow for various compounds
readout: Population Tubulin-Different-Phenotype (%)

>>> measured_result("CC(C)c1noc(N2CCC(COc3ccc(-c4ccc(S(C)(=O)=O)cc4)nc3)CC2)n1")
22
>>> measured_result("CC(C)Oc1ccccc1C(=O)Nc1ccccc1C(=O)Nc1cccc(S(=O)(=O)C(F)(F)F)c1")
74
>>> measured_result("Cc1c[nH]c2nccc(Oc3c(F)cc(Nc4cc(Cl)nc(N)n4)cc3F)c12")
10
>>> measured_result("COc1ccccc1CN[C@H]1C2CCN(CC2)[C@H]1C(c1ccccc1)c1ccccc1")
13

====

# Test system: Fibroblast
# assay-text: Multiplex assay against human fibroblast
# Format: toxicity, cell-based
# particulars: 12 h, 10 µM, compound concentration 10 uM, replicate 2
# binarize Population Hoechst High Intensity Objects (%): threshold 20% inclusive, high side Y, low side N

>>> cat("COc1ccccc1CN[C@H]1C2CCN(CC2)[C@H]1C(c1ccccc1)c1ccccc1 [CP-96345]")
"N"
>>> cat("Cc1nc(N2CC[C@H](O)C2)ncc1-c1cc(C(F)(F)F)cc2[nH]ncc12")
"Y"
>>> cat("CC(C)Oc1ccccc1C(=O)Nc1ccccc1C(=O)Nc1cccc(S(=O)(=O)C(F)(F)F)c1")
"N"
>>> cat("CNC(=O)Nc1ccc(-c2nc(N3CC4CCC(C3)O4)c3cnn(C4CCC5(CC4)OCCO5)c3n2)cc1")
"N"
>>> cat("COC(=O)C1=C(C)NC(C)=C(C(=O)OCCCN2CCC(c3ccccc3)(c3ccccc3)CC2)[C@H]1c1cccc([N+](=O)[O-])c1 [NIGULDIPINE]")
"N"
>>> cat("COc1cc(Nc2nccc(-c3cnn4nc(OC)ccc34)n2)cc(C(F)(F)F)c1")
"Y"
>>> cat("O=c1cc(N2CCOCC2)oc2c(-c3cccc4c3sc3ccccc34)cccc12")
"N"
>>> cat("O=C(c1cc2c(cc1F)OC(c1ccc(F)cc1)(c1ccc(Cl)cc1Cl)O2)N1CCOCC1 (stereo not drawn)")
"N"

====

# System: Fibroblast
# assay-text: Multiplex assay against human fibroblast
# Format: toxicity, cell-based
# particulars: 48 h, 10 µM, compound concentration 10 uM, replicate 2
readout: Population Mitochondria Different-Phenotype (%)

>>> measured_result("COc1ccc(-c2ccc3ncc4c(c3c2)n(-c2ccc(N3CCNCC3)c(C(F)(F)F)c2)c(=O)n4C)cn1.O=C(O)/C=C\\C(=O)O")
33
>>> measured_result("COc1cc2ncn(-c3cc(OCc4ccccc4C(F)(F)F)c(C(N)=O)s3)c2cc1OC [GW843682X]")
21
>>> measured_result("CC(C)(C)NC[C@H](O)COc1nsnc1N1CCOCC1")
2
>>> measured_result("COc1ccccc1CN[C@H]1C2CCN(CC2)[C@H]1C(c1ccccc1)c1ccccc1")
7
>>> measured_result("Cc1c[nH]c2nccc(Oc3c(F)cc(Nc4cc(Cl)nc(N)n4)cc3F)c12")
10
>>> measured_result("C[C@]12CC[C@@H]3c4ccc(O)cc4CC[C@H]3[C@@H]1CC[C@@H]2O")
1
>>> measured_result("CCOC(=O)Nc1cc(-c2ccc(C)c(NS(C)(=O)=O)c2)nn2c(C)nnc12")
1
>>> measured_result("CN1CCN(Cc2ccc(Nc3ncc(Cl)c(Nc4ccccc4S(=O)(=O)N(C)C)n3)cc2)CC1")
19

====

# System: HEK-293T
# assay-text: Multiplex assay against HEK293T
# Type: toxicity, cell-based
# particulars: human, 12 h, 10 µM, compound concentration 10 uM, replicate 2
readout: Population Pyknosed Nuclei (%)

>>> measured_result("CCc1nn(CCCN2CCN(c3cccc(Cl)c3)CC2)c(=O)n1CCOc1ccccc1.Cl [NEFAZODONE HYDROCHLORIDE]")
78
>>> measured_result("COc1cc2ncn(-c3cc(OCc4ccccc4C(F)(F)F)c(C(N)=O)s3)c2cc1OC [GW843682X]")
38
>>> measured_result("CC(C)c1noc(N2CCC(COc3ccc(-c4ccc(S(C)(=O)=O)cc4)nc3)CC2)n1")
72
>>> measured_result("CC1=C(C(=O)Nc2cc3cn[nH]c3cc2F)C(c2ccc(C(F)(F)F)cc2)CC(=O)N1 (stereo not given)")
52
>>> measured_result("CCCSc1nc(N[C@@H]2C[C@H]2c2ccc(F)c(F)c2)c2nnn([C@@H]3C[C@H](OCCO)[C@@H](O)[C@H]3O)c2n1")
66
>>> measured_result("C=CC(=O)Nc1cccc(Oc2nc(Nc3ccc(N4CCN(C)CC4)cc3OC)ncc2Cl)c1")
6
>>> measured_result("CC(C)(C)NC[C@H](O)COc1nsnc1N1CCOCC1")
46
>>> measured_result("O=c1[nH]c2ccccc2n1C1CCN(Cc2ccc(-c3[nH]c4cc5ncnc5cc4nc3-c3ccccc3)cc2)CC1")
25
>>> measured_result("COc1cc(Nc2nccc(-c3cnn4nc(OC)ccc34)n2)cc(C(F)(F)F)c1")
59
>>> measured_result("COc1ccccc1CN[C@H]1C2CCN(CC2)[C@H]1C(c1ccccc1)c1ccccc1")
60

====

# Tested on: HEK-293T
# assay-text: Incucyte cell viability with HEK293T; note: filed as whole numbers so only -1 and 0 and 1 occur
# Format: toxicity, cell-based
# particulars: human, 24 h, 10 µM, compound concentration 10 uM, replicate number 1, timepoint 24 hours
readout: Growth Rate

>>> measured_result("CCCSc1nc(N[C@@H]2C[C@H]2c2ccc(F)c(F)c2)c2nnn([C@@H]3C[C@H](OCCO)[C@@H](O)[C@H]3O)c2n1 [TICAGRELOR]")
0
>>> measured_result("CNCc1ccccc1-c1csc([C@@H](C)Nc2nc(C)nc3cc(OC)c(OC)cc23)c1 [BAY-293]")
0
>>> measured_result("CC(C)Oc1ccccc1C(=O)Nc1ccccc1C(=O)Nc1cccc(S(=O)(=O)C(F)(F)F)c1")
0
>>> measured_result("COCCOc1nc(-c2ccc(Cl)nc2)nc2c1CN(C(=O)c1ncn3ccccc13)CC2 [THPP-1]")
1
>>> measured_result("CN(c1ccccc1CNc1nc(Nc2ccc3c(c2)CC(=O)N3)ncc1C(F)(F)F)S(C)(=O)=O")
0
>>> measured_result("CC1=C(C(=O)Nc2cc3cn[nH]c3cc2F)C(c2ccc(C(F)(F)F)cc2)CC(=O)N1 (configuration not stated)")
1
>>> measured_result("Cl.Clc1cccc(COc2cncc(N3CCNCC3)n2)c1")
0
>>> measured_result("COc1ccc(-c2ccc3cc(C(=O)O)ccc3c2)cc1C12CC3CC(CC(C3)C1)C2")
0
>>> measured_result("COc1cc(Nc2nccc(-c3cnn4nc(OC)ccc34)n2)cc(C(F)(F)F)c1")
0
>>> measured_result("CNC(=O)Nc1ccc2c(c1)[C@@]1(CC2)OC(=O)N(CC(=O)N(Cc2ccc(F)cc2)[C@@H](C)C(F)(F)F)C1=O [A-486]")
0
>>> measured_result("C[C@H](NC(=O)c1cnc2n1[C@](C)(Cc1ccc(C#N)cc1)C(=O)N2c1cc(Cl)c(F)c(Cl)c1)C(=O)NC1(c2ccccn2)CC1 [BI 1950]")
0
>>> measured_result("COC(=O)C1=C(C)NC(C)=C(C(=O)OCCCN2CCC(c3ccccc3)(c3ccccc3)CC2)[C@H]1c1cccc([N+](=O)[O-])c1 [NIGULDIPINE]")
0
>>> measured_result("CC(C)NC(=O)N1CC[C@H](NC2=Nc3cc(F)ccc3N(CC(F)F)c3ccc(Cl)cc32)C1")
1
>>> measured_result("CNC(=O)c1ccc(Nc2ncc(C(F)(F)F)c(NCc3nccnc3N(C)S(C)(=O)=O)n2)cc1 [DEFACTINIB]")
0
>>> measured_result("CCOc1cn(-c2ccc(F)cc2C)nc1C(=O)Nc1ccc(Oc2ccnc3cc(OC)c(OC)cc23)c(F)c1")
1
>>> measured_result("C[C@H](NC[C@H](O)CP(=O)(O)CC1CCCCC1)c1ccc(Cl)c(Cl)c1.Cl")
1
>>> measured_result("O=C(O)Cn1c(C(=O)Nc2nc(-c3ccccc3Cl)cs2)cc2ccccc21")
1
